target: GABAA (α1β2γ2s) receptors (UniProt P14867+P18508+P63138); construct: expressed in transfected cells; host or cells: Xenopus laevis oocytes (intranuclear plasmid injection, α1:β2:γ2 = 1:1:10); test: GABAA receptor two-electrode voltage clamp in oocytes at saturated drug concentration; format: cell-based, human α1, rat β2 and γ2s; settings: drug response without receptor agonist; percent of control agonist peak; mean ±SEM, 5-6 oocytes; saturated drug
Sequence (P14867 28-456): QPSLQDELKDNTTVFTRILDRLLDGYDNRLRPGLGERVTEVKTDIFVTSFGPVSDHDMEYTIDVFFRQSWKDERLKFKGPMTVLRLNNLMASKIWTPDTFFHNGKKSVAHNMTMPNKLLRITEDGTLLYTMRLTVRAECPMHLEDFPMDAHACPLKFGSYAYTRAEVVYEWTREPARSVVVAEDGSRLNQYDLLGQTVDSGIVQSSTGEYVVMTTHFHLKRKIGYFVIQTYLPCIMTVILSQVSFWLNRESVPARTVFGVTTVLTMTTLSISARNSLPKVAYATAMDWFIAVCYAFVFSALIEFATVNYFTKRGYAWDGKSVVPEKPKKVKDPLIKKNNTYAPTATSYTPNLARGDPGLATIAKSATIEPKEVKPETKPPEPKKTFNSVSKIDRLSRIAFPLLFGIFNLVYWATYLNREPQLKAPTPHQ
Sequence (P63138 25-474 limits assumed): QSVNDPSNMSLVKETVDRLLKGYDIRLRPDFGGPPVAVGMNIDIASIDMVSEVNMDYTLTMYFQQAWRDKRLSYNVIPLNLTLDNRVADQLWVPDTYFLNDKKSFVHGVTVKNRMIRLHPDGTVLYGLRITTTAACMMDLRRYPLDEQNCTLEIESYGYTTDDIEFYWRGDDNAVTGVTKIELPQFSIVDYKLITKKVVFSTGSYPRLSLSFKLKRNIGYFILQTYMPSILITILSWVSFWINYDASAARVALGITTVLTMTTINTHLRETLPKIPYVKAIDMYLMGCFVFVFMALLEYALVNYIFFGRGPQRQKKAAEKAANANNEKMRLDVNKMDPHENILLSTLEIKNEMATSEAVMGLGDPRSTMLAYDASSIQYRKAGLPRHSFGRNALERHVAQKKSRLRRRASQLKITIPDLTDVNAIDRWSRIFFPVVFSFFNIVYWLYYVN
Sequence (P18508 39-466): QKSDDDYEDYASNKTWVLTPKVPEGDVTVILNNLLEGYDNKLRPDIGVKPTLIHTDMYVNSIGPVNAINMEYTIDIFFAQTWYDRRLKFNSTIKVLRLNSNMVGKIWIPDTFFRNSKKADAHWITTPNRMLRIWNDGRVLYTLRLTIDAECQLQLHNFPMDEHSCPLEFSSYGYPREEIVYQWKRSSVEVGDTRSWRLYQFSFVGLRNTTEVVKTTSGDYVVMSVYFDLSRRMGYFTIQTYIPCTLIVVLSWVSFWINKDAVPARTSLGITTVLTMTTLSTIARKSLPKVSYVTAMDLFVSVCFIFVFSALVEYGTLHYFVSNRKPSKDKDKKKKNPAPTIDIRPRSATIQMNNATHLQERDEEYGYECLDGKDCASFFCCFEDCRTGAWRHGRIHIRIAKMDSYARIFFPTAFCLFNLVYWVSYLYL
measured.parameter: GABAA % Direct Effect

Examples with answers:
[[record]]
molecule = "CCCCCCCCCC=O"
measured_parameter = "GABAA % Direct Effect"
assay_result = "none"

[[record]]
molecule = "CCCCCCCCCCCCCCCCCCCCN"
measured_parameter = "GABAA % Direct Effect"
assay_result = "none"

[[record]]
molecule = "CCCCCCCCC(C)=O"
measured_parameter = "GABAA % Direct Effect"
assay_result = "none"

[[record]]
molecule = "CCCCCCCCF"
measured_parameter = "GABAA % Direct Effect"
assay_result = "none"

[[record]]
molecule = "Cc1cccc(C)c1"
measured_parameter = "GABAA % Direct Effect"
assay_result = "none"


## Input Look at this molecule and give its reported GABAA % Direct Effect. `CCCCCCCCCCCCO`
## Output none

## Input Using the record for `CCCCCCCCC=O` , report its GABAA % Direct Effect.
## Output none

## Input // lookup GABAA % Direct Effect for `CCCCC`
## Output none

## Input # get_value(readout='GABAA % Direct Effect', item= `CCc1cccc(CC)c1` )
## Output none

## Input Returns the measured GABAA % Direct Effect for the input molecule. Input: `C=CCCC`
## Output 2 ± 3%

## Input I would be grateful if you could share the reported GABAA % Direct Effect for `C#CCCCCCC` .
## Output none

## Input GABAA % Direct Effect for `CCCCCCCCCCCO` ?
## Output none

## Input I'd like to know its GABAA % Direct Effect. The molecule in question is `CCCCCC`
## Output none

## Input # lookup: GABAA % Direct Effect of `CCCCCCCC=O`
## Output 6 ± 3%

## Input What does the data say about its GABAA % Direct Effect? Entry: `CCCCCCOCCCCCC`
## Output none

## Input What does the data say about its GABAA % Direct Effect? Entry: CCCCCCCC(=O)OCC [ethyl octanoate]
## Output none

## Input Using the record for `CCCC` , report its GABAA % Direct Effect.
## Output none

## Input Report GABAA % Direct Effect for CCCCCCSCC [1-(ethylthio)-hexane] please.
## Output none

## Input Find the recorded GABAA % Direct Effect belonging to `CCCCCOCCCCC` and report it.
## Output none

## Input // returns reported GABAA % Direct Effect for input `CCCCCF`
## Output none

## Input What value of GABAA % Direct Effect has been reported for the following molecule? `CCCCCCS`
## Output 8 ± 2%

## Input Fill in the blank: the reported GABAA % Direct Effect of `C1CCCC1` is ____.
## Output 3 ± 2%

## Input Can you share its GABAA % Direct Effect? I mean this molecule: `CCCCCCCCCC(C)=O`
## Output none

## Input Could you tell me which GABAA % Direct Effect is on file for `CCCCCS` ?
## Output 22 ± 8%

## Input Tell me the measured GABAA % Direct Effect of `CCCCCCCCCCO` , please.
## Output none

## Input GABAA % Direct Effect for CCCCCCC(=O)OCC [ethyl heptanoate] ?
## Output none
